Consider the following compounds; for each one, report its Ki.
# TARGET_UNDER_TEST: nuclear factor-kappa B (NF-kB)-inducing kinase (NIK) (Homo sapiens)
# Construct: made in house; host or cells: baculovirus-infected insect cells
# TEST: NIK enzyme inhibition assay (Transcreener ADP fluorescence polarization, NIK ADP-FP)
# Assay type: biochemical
Give bare numbers, in µM.

Count: 4. Required value per item: Ki.
1. COCCNc1cnc(-c2cc(C#C[C@]3(O)CCN(C)C3=O)ccc2F)nc1C(N)=O
2. CN1CC[C@@](O)(C#Cc2cc(-c3cnc(N)c(C(N)=O)n3)c3ncsc3c2)C1=O
3. COC(C)(C)CNc1cnc(-c2cccc(C#C[C@]3(O)CCN(C)C3=O)c2)nc1C(N)=O
4. CN1CC[C@@](O)(C#Cc2cccc(-c3nc(C(N)=O)ccc3F)c2)C1=O

[0.00028, 0.001, 0.00052, 0.00121]

* * *

Assign Ki to each entry below.
# TARGET_UNDER_TEST: nuclear factor-kappa B (NF-kB)-inducing kinase (NIK) (Homo sapiens, UniProt Q99558)
# Construct: made in house; host or cells: baculovirus-infected insect cells
# Sequence (Q99558 whole entry): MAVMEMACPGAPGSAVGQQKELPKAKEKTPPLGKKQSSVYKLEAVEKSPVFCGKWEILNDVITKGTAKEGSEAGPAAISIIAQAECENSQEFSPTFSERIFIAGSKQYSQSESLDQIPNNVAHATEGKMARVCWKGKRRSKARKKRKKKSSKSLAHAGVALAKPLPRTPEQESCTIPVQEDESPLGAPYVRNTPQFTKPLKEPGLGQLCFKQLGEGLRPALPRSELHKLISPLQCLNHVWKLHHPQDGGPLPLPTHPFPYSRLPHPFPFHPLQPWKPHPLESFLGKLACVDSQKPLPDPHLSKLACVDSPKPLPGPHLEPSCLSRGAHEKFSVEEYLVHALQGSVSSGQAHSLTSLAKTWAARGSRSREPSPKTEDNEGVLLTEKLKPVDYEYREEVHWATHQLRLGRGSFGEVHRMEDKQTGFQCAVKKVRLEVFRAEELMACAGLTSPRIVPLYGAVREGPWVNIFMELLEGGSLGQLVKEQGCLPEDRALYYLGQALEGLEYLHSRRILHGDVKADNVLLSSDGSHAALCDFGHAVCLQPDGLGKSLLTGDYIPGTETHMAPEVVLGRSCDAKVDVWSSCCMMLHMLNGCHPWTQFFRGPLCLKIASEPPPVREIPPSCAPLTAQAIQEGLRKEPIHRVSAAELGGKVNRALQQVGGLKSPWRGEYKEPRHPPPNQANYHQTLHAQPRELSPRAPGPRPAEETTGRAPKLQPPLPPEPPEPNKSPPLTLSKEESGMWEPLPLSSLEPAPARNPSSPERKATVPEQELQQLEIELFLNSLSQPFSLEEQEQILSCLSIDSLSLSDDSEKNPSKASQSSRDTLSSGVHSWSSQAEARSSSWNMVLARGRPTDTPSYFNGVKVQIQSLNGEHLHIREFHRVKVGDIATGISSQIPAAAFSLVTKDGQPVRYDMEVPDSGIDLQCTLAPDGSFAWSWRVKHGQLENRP
# TEST: NIK enzyme inhibition assay (Transcreener ADP fluorescence polarization, NIK ADP-FP)
# Type: biochemical
# SETTINGS: purified NIK 0.5 nM, 10 μM ATP, pH 7.2; Ki from Morrison's quadratic equation
One number for each entry, in nM.

Below: 2 compounds and their reported Ki.
smiles_input=CN1CC[C@@](O)(C#Cc2cccc(-c3nc(C(N)=O)cn4ccnc34)c2)C1=O target_under_test="nuclear factor-kappa B (NF-kB)-inducing kinase (NIK) (Homo sapiens, UniProt Q99558)" recorded_endpoint=Ki value_unit=nM endpoint_value=0.39
smiles_input=Cc1cnn(-c2cc(C(N)=O)nc(-c3cccc(C#C[C@]4(O)CCN(C)C4=O)c3)n2)c1 target_under_test="nuclear factor-kappa B (NF-kB)-inducing kinase (NIK) (Homo sapiens, UniProt Q99558)" recorded_endpoint=Ki value_unit=nM endpoint_value=0.4

Now let's try a different one.
Value lookup for Ki; key = CCn1nccc1-c1cc(C(N)=O)nc(-c2cccc(C#C[C@]3(O)CCN(C)C3=O)c2)n1
0.08

* * *

# TARGET_UNDER_TEST: nuclear factor-kappa B (NF-kB)-inducing kinase (NIK) (Homo sapiens, UniProt Q99558)
# Construct: made in house; host or cells: baculovirus-infected insect cells
# TEST: NIK enzyme inhibition assay (Transcreener ADP fluorescence polarization, NIK ADP-FP)
# Type: biochemical
Would you mind telling me the reported Ki of each entry?
Answers are plain numbers, in nM.

smiles_input=COCCNc1ccc(-c2cccc(C#C[C@]3(O)CCN(C)C3=O)c2)nc1C(N)=O recorded_endpoint=Ki value_unit=nM endpoint_value=0.05
smiles_input=CN1CC[C@@](O)(C#Cc2cccc(-c3nc(C(N)=O)c(NC[C@@H]4CCO4)cc3F)c2)C1=O recorded_endpoint=Ki value_unit=nM endpoint_value=0.05
smiles_input=CN1CC[C@@](O)(C#Cc2cccc(-c3nc(C(N)=O)cc(N4CC[C@@H]4c4cccs4)n3)c2)C1=O recorded_endpoint=Ki value_unit=nM endpoint_value=4.85
smiles_input=CN1CC[C@@](O)(C#Cc2cc(-c3nc(C(N)=O)c(N)cc3F)ccc2F)C1=O recorded_endpoint=Ki value_unit=nM endpoint_value=0.05
smiles_input=CN1CC[C@@](O)(C#Cc2cccc(-c3cc4cc[nH]c4c(C(N)=O)n3)c2)C1=O recorded_endpoint=Ki value_unit=nM endpoint_value=0.05

Respectfully, I request Ki for each entry included below.
1. CN1CC[C@@](O)(C#Cc2cccc(-c3ncc(NC4CC4)c(C(N)=O)n3)c2)C1=O
2. CN1CC[C@@](O)(C#Cc2cccc(-c3ccc(F)c(C(N)=O)n3)c2)C1=O

[0.14, 1.86]
